# assay.method.text: Primary qHTS for delayed death inhibitors of the malarial parasite plastid, 96 hour incubation
# condition.parameters: P. falciparum luciferase reporter growth; series mostly up to 28.7 µM
# Excerpt: The goal of this screen is to discover new antimalarial compounds that act by inhibiting the development of the apicoplast in the malarial parasite Plasmodium falciparum. […] We have developed a cell-based assay that measures parasite growth based on the expression of an integrated copy of a firefly luciferase reporter. […] Growth inhibition is detected by a decrease in luciferase activity. […]
Screen size: about 320,000 compounds; about 22,000 (6.9%) were called active. Roughly 27% stayed inconclusive and do not appear here. The call rests on the fitted dose curve; in most records, active means well fitted inhibition curve with a large enough effect; inconclusive means small, poorly fitted or top-dose-only effect, or another doubt; inactive means no such curve, though single readings can be large or run the other way. For the sample, actives were picked, then their nearest neighbours and some compounds at random.
Choose the fitting class; nothing outside YES (active), NO (inactive) is accepted.

Q: Given "O=C(NCCc1ccc(C(F)(F)F)cc1)c1ccc2c(c1)OCO2" , state the outcome it received in this test.
A: NO

Q: Given "COc1ccc(F)c(-c2nc(CN3CCC(c4ccccc4)CC3)c(C)o2)c1" , state the outcome it received in this test.
A: NO

Q: Given "COc1ccc(-n2c(=O)[nH]c3cc(C(=O)NCCc4ccc(OC)c(OC)c4)ccc3c2=O)c(OC)c1" , state the outcome it received in this test.
A: NO

Q: Given "O=C(COc1ccc(Cl)cc1)NCCC1=CCCCC1" , state the outcome it received in this test.
A: NO

Q: Given "CCN1C(=O)/C(=C2/Sc3ccccc3N2CCCS(=O)(=O)O)SC1=S" , state the outcome it received in this test.
A: NO

Q: Given "Cc1oc2cc(Br)c(O)c(Br)c2c1C(=O)c1ccccc1" , state the outcome it received in this test.
A: NO

Q: Given "CCN(CC(=O)N1CCCC1)S(=O)(=O)c1ccc(F)cc1" , state the outcome it received in this test.
A: NO

Q: Given "O=C(Oc1ccc(-c2nnco2)cc1)c1ccc(F)c(S(=O)(=O)N2CCOCC2)c1" , state the outcome it received in this test.
A: NO

Q: Given "COc1cc(C(=O)NCC(=O)N2CC=C(c3ccccc3)CC2)cc(OC)c1OC" , state the outcome it received in this test.
A: NO

Q: Given "CCOC(=O)c1ccc(S(=O)(=O)N(CCO)Cc2cc3cc(OC)c(OC)cc3[nH]c2=O)cc1" , state the outcome it received in this test.
A: NO

Q: Given "O=C(COc1cccc(-n2cnnn2)c1)NCCC1=CCCCC1" , state the outcome it received in this test.
A: YES
